Below, each of the compounds is paired with its reported IC50 value.
# target_desc: BACE (Homo sapiens (Human), UniProt P56817)
# Sequence (P56817 46-501, species assumed): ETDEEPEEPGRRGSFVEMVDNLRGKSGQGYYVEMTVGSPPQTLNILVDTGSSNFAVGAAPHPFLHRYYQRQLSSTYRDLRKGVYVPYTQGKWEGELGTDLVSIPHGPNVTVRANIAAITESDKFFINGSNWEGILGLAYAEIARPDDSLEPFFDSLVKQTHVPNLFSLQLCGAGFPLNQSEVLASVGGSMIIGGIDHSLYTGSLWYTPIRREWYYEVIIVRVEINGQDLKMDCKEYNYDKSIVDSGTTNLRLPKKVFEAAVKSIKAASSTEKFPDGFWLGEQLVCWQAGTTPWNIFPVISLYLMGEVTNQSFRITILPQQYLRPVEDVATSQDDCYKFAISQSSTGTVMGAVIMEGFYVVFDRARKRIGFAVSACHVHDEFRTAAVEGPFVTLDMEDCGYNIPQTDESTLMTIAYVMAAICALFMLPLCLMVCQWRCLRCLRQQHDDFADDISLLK
# assay_name: In vitro BACE cell-based assay (Aβ40 in conditioned medium, sandwich ELISA)
Counter-ions that a name gives are not always drawn.
reported_metric: IC50 (µM)

compound	modifier	result_number
CC(C)(C)OCC(=O)Nc1ccc(F)c([C@@]2(C(F)F)N=C(N)O[C@@H]3C[C@@H]32)c1	>	15.6
Cc1ncc(Cl)nc1C(=O)Nc1ccc(F)c([C@@]2(C(F)F)N=C(N)O[C@@H]3C[C@@H]32)c1 (stereo in doubt)	=	2.24
C[C@H](F)c1nc(C(=O)Nc2ccc(F)c([C@@]3(C(F)F)N=C(N)O[C@@H]4C[C@@H]43)c2)co1 (mixture of isomers) [Example 175, trifluoroacetate]	=	2.48
NC1=N[C@](CF)(c2cc(NC(=O)c3ncc(Cl)cc3Cl)ccc2Cl)[C@H]2C[C@H]2O1	=	0.006
NC1=N[C@@](c2cc(Nc3ncnc4cc(C(F)(F)F)cnc34)ccc2F)(C(F)F)[C@H]2C[C@H]2O1	=	0.268
Cc1c(C(=O)Nc2ccc(F)c([C@@]3(CF)N=C(N)O[C@@H]4C[C@@H]43)c2)nc2ccc(Cl)cn12	=	0.025
NC1=N[C@@](c2cc(NC(=O)c3cnc(OC(F)F)cn3)ccc2F)(C(F)F)[C@H]2C[C@H]2O1	=	0.0178
N#Cc1cnc(C(=O)Nc2ccc(F)c([C@@]3(C(F)F)N=C(N)O[C@@H]4C[C@@H]43)c2)c(F)c1	=	0.0069
COc1cnc(C(=O)Nc2cc(C)c(F)c([C@@]3(C(F)F)N=C(N)O[C@@H]4C[C@@H]43)c2)c(C)n1	=	0.0405
NC1=N[C@@](c2cc(NC(=O)c3ccc(Br)cn3)ccc2F)(C(F)F)[C@H]2C[C@H]2O1	=	0.0181
NC1=N[C@@](c2cc(N3Cc4cc(Cl)cnc4C3=O)ccc2F)(C(F)F)[C@H]2C[C@H]2O1	=	0.384
COc1cnc(C(=O)Nc2ccc(C)c([C@@]3(C(F)F)N=C(N)O[C@@H]4C[C@@H]43)c2)cn1	=	0.0612
Cc1cccnc1C(=O)Nc1ccc(F)c([C@@]2(C(F)F)N=C(N)O[C@@H]3C[C@@H]32)c1	=	0.601
NC1=N[C@@](c2cc(NCC3(c4ccc(Cl)cc4)CC3)ccc2F)(C(F)F)[C@H]2C[C@H]2O1	=	8.85
